- APPLIED CONDITIONS: in dichloromethane, 293.15 K
MEASURED ATTRIBUTE: solubility (mole fraction)
Write no unit; give the number alone.

Give its solubility (mole fraction) value. Item: O=C(NC[C@H]1CN(c2ccc(N3CCOCC3=O)cc2)C(=O)O1)c1ccc(Cl)s1
0.000308

* * *

- APPLIED CONDITIONS: in n-butanol, 288.15 K
MEASURED ATTRIBUTE: solubility (mole fraction)
Write no unit; give the number alone.

Give its solubility (mole fraction) value. Item: O=C(NC[C@H]1CN(c2ccc(N3CCOCC3=O)cc2)C(=O)O1)c1ccc(Cl)s1
7.84e-06

* * *

- APPLIED CONDITIONS: in n-butanol, 303.15 K
MEASURED ATTRIBUTE: solubility (mole fraction)
Write no unit; give the number alone.

Give its solubility (mole fraction) value. Item: O=C(NC[C@H]1CN(c2ccc(N3CCOCC3=O)cc2)C(=O)O1)c1ccc(Cl)s1
2.01e-05

* * *

- APPLIED CONDITIONS: in n-propanol, 308.15 K
MEASURED ATTRIBUTE: solubility (mole fraction)
Write no unit; give the number alone.

Give its solubility (mole fraction) value. Item: O=C(NC[C@H]1CN(c2ccc(N3CCOCC3=O)cc2)C(=O)O1)c1ccc(Cl)s1
2.88e-05

* * *

- APPLIED CONDITIONS: in n-propanol, 288.15 K
MEASURED ATTRIBUTE: solubility (mole fraction)
Write no unit; give the number alone.

Give its solubility (mole fraction) value. Item: O=C(NC[C@H]1CN(c2ccc(N3CCOCC3=O)cc2)C(=O)O1)c1ccc(Cl)s1
1.05e-05

* * *

- APPLIED CONDITIONS: in dichloromethane, 303.15 K
MEASURED ATTRIBUTE: solubility (mole fraction)
Write no unit; give the number alone.

Give its solubility (mole fraction) value. Item: O=C(NC[C@H]1CN(c2ccc(N3CCOCC3=O)cc2)C(=O)O1)c1ccc(Cl)s1
0.00037

* * *

- APPLIED CONDITIONS: in ethanol, 288.15 K
MEASURED ATTRIBUTE: solubility (mole fraction)
Write no unit; give the number alone.

Give its solubility (mole fraction) value. Item: O=C(NC[C@H]1CN(c2ccc(N3CCOCC3=O)cc2)C(=O)O1)c1ccc(Cl)s1
1.46e-05

* * *

- APPLIED CONDITIONS: in n-propanol, 293.15 K
MEASURED ATTRIBUTE: solubility (mole fraction)
Write no unit; give the number alone.

Give its solubility (mole fraction) value. Item: O=C(NC[C@H]1CN(c2ccc(N3CCOCC3=O)cc2)C(=O)O1)c1ccc(Cl)s1
1.37e-05

* * *

- APPLIED CONDITIONS: in methanol, 288.15 K
MEASURED ATTRIBUTE: solubility (mole fraction)

Give its solubility (mole fraction) value. Item: O=C(NC[C@H]1CN(c2ccc(N3CCOCC3=O)cc2)C(=O)O1)c1ccc(Cl)s1
2.97e-05

* * *

- APPLIED CONDITIONS: in dichloromethane, 298.15 K
MEASURED ATTRIBUTE: solubility (mole fraction)
Write no unit; give the number alone.

Give its solubility (mole fraction) value. Item: O=C(NC[C@H]1CN(c2ccc(N3CCOCC3=O)cc2)C(=O)O1)c1ccc(Cl)s1
0.000338

* * *

- APPLIED CONDITIONS: in ethanol, 298.15 K
MEASURED ATTRIBUTE: solubility (mole fraction)

Give its solubility (mole fraction) value. Item: O=C(NC[C@H]1CN(c2ccc(N3CCOCC3=O)cc2)C(=O)O1)c1ccc(Cl)s1
2.09e-05
